Experiment: Hemolysis assay, 50% lysis of RBC's
Format: cell-based, human
Settings: human, 0.25% suspension of human erythrocytes (RBCs), pH 7
This listing pairs compounds with measured HC50 at 1 h.

{"compound": "CC(C)C[C@@H](CC(=O)O)NC(=O)C[C@H](CCCCN)NC(=O)C[C@@H](NC(=O)C[C@H](CC(C)C)NC(=O)C[C@H](CCCCN)NC(=O)C[C@@H](NC(=O)C[C@H](CC(C)C)NC(=O)C[C@H](CCCCN)NC(=O)C[C@@H](NC(=O)OCC1c2ccccc2-c2ccccc21)C(C)C)C(C)C)C(C)C", "units_text": "µM", "modifier_sign": "=", "HC50 at 1 h": 6.3}
{"compound": "CC(C)C[C@@H](CC(=O)O)NC(=O)C[C@H](CCCCN)NC(=O)C[C@@H](NC(=O)C[C@H](CC(C)C)NC(=O)C[C@H](CCCCN)NC(=O)C[C@@H](NC(=O)C[C@H](CC(C)C)NC(=O)C[C@H](CCCCN)NC(=O)C[C@@H](NC(=O)C[C@H](CC(C)C)NC(=O)C[C@H](CCCCN)NC(=O)C[C@@H](NC(=O)OCC1c2ccccc2-c2ccccc21)C(C)C)C(C)C)C(C)C)C(C)C", "units_text": "µM", "modifier_sign": "=", "HC50 at 1 h": 0.31}
{"compound": "CC(C)[C@@H](CC(N)=O)NC(=O)C[C@H](CCCCN)NC(=O)C[C@H](C)NC(=O)C[C@@H](NC(=O)C[C@H](CCCCN)NC(=O)C[C@H](C)NC(=O)C[C@@H](NC(=O)C[C@H](CCCCN)NC(=O)C[C@H](C)NC(=O)C[C@@H](NC(=O)C[C@H](CCCCN)NC(=O)C[C@H](C)N)C(C)C)C(C)C)C(C)C [Peptide 1]", "units_text": "µM", "modifier_sign": "=", "HC50 at 1 h": 670}
{"compound": "CC(C)C[C@@H](CC(=O)O)NC(=O)C[C@H](CCCCN)NC(=O)C[C@@H](NC(=O)C[C@H](CC(C)C)NC(=O)C[C@H](CCCCN)NC(=O)C[C@@H](N)C(C)C)C(C)C", "units_text": "µM", "modifier_sign": ">", "HC50 at 1 h": 100}
{"compound": "CC(C)C[C@@H](CC(=O)O)NC(=O)C[C@H](CCCCN)NC(=O)C[C@@H](NC(=O)C[C@H](CC(C)C)NC(=O)C[C@H](CCCCN)NC(=O)C[C@@H](NC(=O)C[C@H](CC(C)C)NC(=O)C[C@H](CCCCN)NC(=O)C[C@@H](NC(=O)C[C@H](CC(C)C)NC(=O)C[C@H](CCCCN)NC(=O)C[C@@H](N)C(C)C)C(C)C)C(C)C)C(C)C", "units_text": "µM", "modifier_sign": "=", "HC50 at 1 h": 4.2}
{"compound": "CC(C)C[C@H](N)CC(=O)N[C@@H](CCCCN)CC(=O)N[C@H](CC(=O)N[C@H](CC(=O)N[C@@H](CCCCN)CC(=O)N[C@H](CC(=O)N[C@H](CC(=O)N[C@@H](CCCCN)CC(=O)N[C@H](CC(=O)N[C@H](CC(=O)N[C@@H](CCCCN)CC(=O)N[C@H](CC(=O)O)CC(C)C)CC(C)C)CC(C)C)CC(C)C)CC(C)C)CC(C)C)CC(C)C", "units_text": "µM", "modifier_sign": "=", "HC50 at 1 h": 2.6}
{"compound": "CC(C)C[C@H](N)CC(=O)N[C@@H](CCCCN)CC(=O)N[C@H](CC(=O)N[C@H](CC(=O)N[C@@H](CCCCN)CC(=O)N[C@H](CC(=O)N[C@H](CC(=O)N[C@@H](CCCCN)CC(=O)N[C@H](CC(=O)O)CC(C)C)CC(C)C)CC(C)C)CC(C)C)CC(C)C", "units_text": "µM", "modifier_sign": ">", "HC50 at 1 h": 100}
